Experiment: Clearance in Sprague-Dawley rat plasma at 4 mg/kg, iv administered as bolus dose by LCMS analysis
Type: ADME, organism-based
Measurement Label: clearance (mL/min/kg)
Give bare numbers, in mL/min/kg.

// query # input compound: Cn1cc(-c2[nH]c3cc(NC(=O)[C@H](N)C4CCCCC4)cc4c3c2C=NNC4=O)cn1 ; wanted: its clearance
// result 11.8

* * *

Experiment: AUC (0 to infinity) in nu/nu mouse at 40 mg/kg, ip by LCMS analysis
Format: ADME, organism-based
Condition Parameters: in vivo
Measurement Label: AUC(0-inf)

// query # input molecule: Cn1cc(-c2[nH]c3cc(NC(=O)[C@H](N)C4CCCCC4)cc4c3c2C=NNC4=O)cn1 ; wanted: its AUC(0-inf)
// result 25800 ng·h/mL

* * *

Experiment: Terminal half life in Sprague-Dawley rat at 4 mg/kg, iv administered as bolus dose by LCMS analysis
Assay type: ADME, organism-based
Condition Parameters: in vivo, read-out: beta t1/2 (converted)
Measurement Label: half-life (h)
Give bare numbers, in h.

// query # input compound: Cn1cc(-c2[nH]c3cc(NC(=O)[C@H](N)C4CCCCC4)cc4c3c2C=NNC4=O)cn1 ; wanted: its half-life
// result 2.9

* * *

Target: Receptor-type tyrosine-protein kinase FLT3 (Homo sapiens, UniProt P36888)
Sequence (P36888 whole entry): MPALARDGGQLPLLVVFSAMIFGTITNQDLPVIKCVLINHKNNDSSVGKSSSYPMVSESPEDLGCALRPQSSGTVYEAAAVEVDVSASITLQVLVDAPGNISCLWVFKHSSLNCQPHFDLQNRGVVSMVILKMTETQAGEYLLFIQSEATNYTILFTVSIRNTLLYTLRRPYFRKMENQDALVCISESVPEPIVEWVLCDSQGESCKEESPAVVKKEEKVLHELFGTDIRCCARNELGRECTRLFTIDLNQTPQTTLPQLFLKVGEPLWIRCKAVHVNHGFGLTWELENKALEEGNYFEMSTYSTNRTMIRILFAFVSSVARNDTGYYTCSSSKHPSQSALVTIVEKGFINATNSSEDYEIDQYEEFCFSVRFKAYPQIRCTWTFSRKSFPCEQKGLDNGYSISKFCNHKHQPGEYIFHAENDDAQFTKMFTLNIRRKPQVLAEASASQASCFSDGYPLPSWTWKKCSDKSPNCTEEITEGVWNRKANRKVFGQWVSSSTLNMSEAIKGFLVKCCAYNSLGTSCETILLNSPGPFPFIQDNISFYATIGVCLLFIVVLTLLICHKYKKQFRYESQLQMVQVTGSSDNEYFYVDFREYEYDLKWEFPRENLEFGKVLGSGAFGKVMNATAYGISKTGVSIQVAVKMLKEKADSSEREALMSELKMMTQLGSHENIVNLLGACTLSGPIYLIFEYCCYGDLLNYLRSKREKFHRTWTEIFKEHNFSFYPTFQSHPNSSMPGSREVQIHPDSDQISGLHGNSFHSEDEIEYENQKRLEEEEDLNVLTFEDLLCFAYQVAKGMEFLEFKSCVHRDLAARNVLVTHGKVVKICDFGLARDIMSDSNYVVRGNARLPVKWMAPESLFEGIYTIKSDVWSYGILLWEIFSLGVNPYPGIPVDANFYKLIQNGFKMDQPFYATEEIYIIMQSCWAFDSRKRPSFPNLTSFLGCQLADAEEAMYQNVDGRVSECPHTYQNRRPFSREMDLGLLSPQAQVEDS
Measurement Label: pIC50
Give bare numbers, as −log10 of the molar value.

// query # input compound: Cn1cc(-c2[nH]c3cc(NC(=O)[C@H](N)C4CCCCC4)cc4c3c2C=NNC4=O)cn1 ; wanted: its pIC50
// result 7.29

* * *

Experiment: Cmax in nu/nu mouse at 20 mg/kg, ip by LCMS analysis
Type: ADME, organism-based
Condition Parameters: in vivo
Measurement Label: Cmax (ng/mL)
Numbers only, in ng/mL.

// query # input molecule: Cn1cc(-c2[nH]c3cc(NC(=O)[C@H](N)C4CCCCC4)cc4c3c2C=NNC4=O)cn1 ; wanted: its Cmax
// result 1290

* * *

Experiment: AUC (0 to infinity) in nu/nu mouse at 20 mg/kg, ip by LCMS analysis
Format: ADME, organism-based
Condition Parameters: in vivo
Measurement Label: AUC(0-inf) (ng·h/mL)
Give bare numbers, in ng·h/mL.

// query # input molecule: Cn1cc(-c2[nH]c3cc(NC(=O)[C@H](N)C4CCCCC4)cc4c3c2C=NNC4=O)cn1 ; wanted: its AUC(0-inf)
// result 2670

* * *

Tested on: MDA-MB-231
Experiment: Antiproliferative activity against human MDA-MB-231 cells deficit of p53 expression assessed as inhibition of cell growth measured after 96 hrs by MTT assay
Assay type: functional, cell-based
Condition Parameters: MDA-MB-231, 96 h
Measurement Label: IC50
Number first, unit second.

// query # input molecule: Cn1cc(-c2[nH]c3cc(NC(=O)[C@H](N)C4CCCCC4)cc4c3c2C=NNC4=O)cn1 ; wanted: its IC50
// result 1400 nM

* * *

Experiment: Cmax in nu/nu mouse at 4 mg/kg, ip by LCMS analysis
Type: ADME, organism-based
Condition Parameters: in vivo
Measurement Label: Cmax

// query # input compound: Cn1cc(-c2[nH]c3cc(NC(=O)[C@H](N)C4CCCCC4)cc4c3c2C=NNC4=O)cn1 ; wanted: its Cmax
// result 270 ng/mL
